# % Dose Remaining (liver, 24 h) per entry
experiment: Lipid clearance: % dose remaining, Tables 7c and 8b-8e (species not given); type: in vivo; settings: lipid:Chol:PEG 1 50:47.5:2.5, Table 8e
property_name: % Dose Remaining (liver, 24 h)

* CCCCCCCCCOC(=O)CCCCCCCN(CCCCCCCC(=O)OC(CCCCCCCC)CCCCCCCC)CCOCCN(CCCCCCCCC)CCCCCCCCC | 50.47%
* CCCCCCCCCOC(=O)CCCCCCCN(CCCCCCCC(=O)OC(CCCCCCCC)CCCCCCCC)CCOCCOCCN(CCCCCCCCC)CCCCCCCCC | 30.05%
* CCCCCCCCCOC(=O)CCCCCCCN(CCCCCCCC(=O)OC(CCCCCCCC)CCCCCCCC)CCCCCN(CCCCCCCCC)CCCCCCCCC | 44.93%
* CCCCCCCCCOC(=O)CCCCCCCN(CCCCCCCC(=O)OCCCCCCCCC)CCOCCOCCN(CCCCCCCCC)CCCCCCCCC | 8.55%
* CCCCCCCCCOC(=O)CCCCCCCN(CCCCCCCC(=O)OCCCCCCCCC)CCCCCN(CCCCCCCCC)CCCCCCCCC | 35.91%
* CCCCCCCCCOC(=O)CCCCCCCN(CCCCCCCC(=O)OCCCCCCCCC)CCOCCN(CCCCCCCCC)CCCCCCCCC | 26.22%

###

assay: pKa of nanoparticle compositions; type: physicochemical; conditions: Table 1b
Measured pKa accompanies every entry in the list below.
property_name: pKa

• CCCCCCCCCN(CCCOC(=O)CCCCC)CCC1CCN(C(=O)CN(CCCCCCCCC)CCN(CCCCCCCCC)CCCCCCCCC)CC1 [Compound 61] = 6.61
• CCCCCCCCCN(CCCCCCCCC)CCN(CCCCCCCCC)CC(=O)N1CCN(C(=O)CN(CCCC(=O)OCCCCC)CCCC(=O)OCCCCC)CC1 [Compound 72] = 7.19
• CCCCCCCCCN(CCCCCCCCC)CCN(CCCCCCCCC)CC(=O)N1CCN(C(=O)CN(CCCCCCCCC)CCCCCC(=O)OCCC)CC1 [Compound 54] = 6.88

###

assay: Encapsulation efficiency of RNA (QUANT-IT RIBOGREEN RNA assay); assay type: physicochemical; details: Table 1e, Formulated with lipid:Chol:DOPE:PEG 1 40:38.5:20:1.5
property_name: EE (%)

* CCCCCCCCCN(CCCCCCCCC)CCCOCCCN(CCCCCCCCC)CCN(CCCCCCCCC)CCCCCCCCC [Compound 161] | 97.8
* CCCCCCCCCCNC(=O)CN(CCCCCCCCC)CCN(CCCCCCCCC)CCCCCCCCC [Compound 162] | 98.4
* CCCCCCCCCCN(CCCCCCCCCC)CCCCC(=O)N1CCN(C(=O)CCCCN(CCCCCCCCCC)CCCCCCCCCC)CC1 [Compound 164] | 97.7
* CCCCCCCCCN(CCCCCCCCC)CCN(CCCCCCCCC)CCOC(=O)CCCCCCCC [Compound 168] | 97.3
* CCCCCCCCCCCCCC(=O)OCCN(CCCCCCCCC)CCN(CCCCCCCCC)CCCCCCCCC [Compound 169] | 97.6
* CCCCCCCCCN(CCCCCCCCC)CCN(CCCCCCCCC)CC(=O)NCCCCOC(=O)CCCC [Compound 165] | 97.0
* CCCCCCCCCOC(=O)CN(CCCCCCCCC)CCN(CCCCCCCCC)CCCCCCCCC [Compound 166] | 97.1
* CCCCCCCCCCCCCCNC(=O)CN(CCCCCCCCC)CCN(CCCCCCCCC)CCCCCCCCC [Compound 163] | 98.1
* CCCCCCCCCCCCCCOC(=O)CN(CCCCCCCCC)CCN(CCCCCCCCC)CCCCCCCCC [Compound 167] | 97.6

###

assay: pKa of nanoparticle compositions; type: physicochemical; details: Table 1c
Use label 1 when the recorded pKa is no lower than 7; use label 0 when it is lower.

* CCCCCCCCCCCC(=O)N1CCN(C(=O)CN(CCCCCCCCC)CCN(CCCCCCCCC)CCCCCCCCC)CC1 | label 1
* CCCCCCCCCN(CCCCCCCCC)CCOC(=O)C1CCC(C(=O)OCCN(CCCCCCCCC)CCN(CCCCCCCCC)CCCCCCCCC)CC1 (stereo not shown) | label 0
* CCCCCCCCCCCCCCN(CCCOC(=O)CCCCCCCCC)CCC1CCCN(C(=O)CN(CCCCCCCCC)CCN(CCCCCCCCC)CCCCCCCCC)C1 (stereo not shown) | label 0
* CCCCCCCCCCCCCCN(CCCCCC(=O)OCCCCCCC)CC(=O)N1CCN(C(=O)CN(CCCCCCCCC)CCN(CCCCCCCCC)CCCCCCCCC)CC1 | label 0
* CCCCCCCCCN(CCCCCCCCC)CCN(CCCCCCCCC)CC(=O)N1CCC(CCOC(=O)CN(CCCCCCCCC)CCCCCCCCC)C1 (stereo not shown) | label 1
* CCCCCCCCCN(CCCCCCCCC)CCN(CCCCCCCCC)CC(=O)N1CCN(C(=O)CCCC(=O)OCCCCCCC)CC1 | label 1
* CCCCCCCCCN(CCCCCCCCC)CCN(CCCCCCCCC)CC(=O)N1CCN(C(=O)CN(CCCCCCCCC)CCCCCOC(=O)OC)CC1 | label 1
* CCCCCCCCCCCCCCN(CCCCCCCC(=O)OCCCCC)CCC1CCN(C(=O)CN(CCCCCCCCC)CCN(CCCCCCCCC)CCCCCCCCC)CC1 | label 0
* CCCCCCCCCN(CCCCCCCCC)CCN(CCCCCCCCC)CC(=O)N1CCC(CCN(CCCCCCCCC)CC(C)COC(=O)CCCCC)CC1 (stereo not shown) | label 0

###

test: Particle size and polydispersity index of nanoparticle compositions (Zetasizer Nano ZS); type: physicochemical; conditions: Table 1d, Formulated with lipid:Chol:DOPE:PEG 1 40:38.5:20:1.5
property_name: PDI

* CCCCCCCCCCCCCCN(C/C=C\COC(=O)CCCCCCCC)CC(=O)N1CCN(C(=O)CN(CCCCCCCCC)CCN(CCCCCCCCC)CCCCCCCCC)CC1 | 0.15
* CCCCCCCCCN(CCCCCCCCC)CCN(CCCCCCCCC)CC(=O)N(C)CCCN(C)C(=O)CN(CCCCCCCCC)CCCCCCCCC | 0.22
* CCCCCCCCCN(CCCCCCCCC)CCCCCCCCN(CCCCCCCCC)CCN(CCCCCCCCC)CCCCCCCCC | 0.25
* CCCCC/C=C\CCN(CC/C=C\CCCCC)CCN(CC/C=C\CCCCC)CC(=O)N(C)CCN(C)C(=O)CN(CCCCCCCCC)CCCCCCCCC | 0.18
* CCCCCCCCCCCCCCN(CCCOC(=O)CCCCCCCCC)CC(=O)N(C)CCN(C)C(=O)CN(CCCCCCCCC)CCN(CCCCCCCCC)CCCCCCCCC | 0.20
* CCCCCCCCCN(CCCCCCCCC)CCN(CCCCCCCCC)CC(=O)NCCNC(=O)CN(CCCCCCCCC)CCCCCCCCC | 0.23

###

assay: Lipid clearance: % dose remaining in liver of CD-1 mice; assay type: in vivo; settings: intravenous, 0.5 mg/kg, CD-1 mouse, Table 8a
Kind request: treat 50% as inclusive, so % Dose Remaining 24 hr at 50% or higher is 1, anything lower is 0.

• CCCCCCCCCN(CCCCCCCCC)CCN(CCCCCCCCC)CC(=O)N1CCN(C(=O)C(C)N(CCCCCCCCC)CCCC(=O)OCCCCC)CC1 (stereo not shown) [Compound 111] = 1
• CCCCCCCCCN(CCCCCCCCC)CCN(CCCCCCCCC)CC(=O)N1CCC(CN(CCCCCCCCC)CCCCCCCCC)C1 (stereo not shown) [Compound 70] = 1
• CCCCCCCCCN(CCCCCCCCC)CCC1CCN(C(=O)CN(CCCCCCCCC)CCN(CCCCCCCCC)CCCCCCCCC)C1 (stereo not shown) [Compound 69] = 1
• CCCCCC/C=C\CC(=O)OCCCN(CCCCCCCCCCCCCC)CC(=O)N1CCN(C(=O)CN(CCCCCCCCC)CCN(CCCCCCCCC)CCCCCCCCC)CC1 [Compound 137] = 0
• CCCCCCCCCN(CCCOC(=O)CC(C)CCC)CCC1CCN(C(=O)CN(CCCCCCCCC)CCN(CCCCCCCCC)CCCCCCCCC)CC1 (stereo not shown) [Compound 133] = 0
• CCCCCCCCCCCCCCN(CCCOC(=O)CCCCCCCCC)CCC1CCCN(C(=O)CN(CCCCCCCCC)CCN(CCCCCCCCC)CCCCCCCCC)C1 (stereo not shown) [Compound 122] = 0
• CCCCCCCCCN(CCCCCCCCC)CCOC(=O)C1CCC(C(=O)OCCN(CCCCCCCCC)CCN(CCCCCCCCC)CCCCCCCCC)CC1 (stereo not shown) [Compound 128] = 1
• CCCCCCCCCN(CCCCCCCCC)CCN(CCCCCCCCC)CCOC(=O)C1CCN(C(=O)CN(CCCCCCCCC)CCCCCCCCC)CC1 [Compound 129] = 0
• CCCCCCCCCN(CCCC(=O)OCCCCC)CCC1CCCN(C(=O)CN(CCCCCCCCC)CCN(CCCCCCCCC)CCCCCCCCC)C1 (stereo not shown) [Compound 80] = 0
• CCCCCCCCCCCCCCN(CCCCCCCC(=O)OCCCCC)CCC1CCN(C(=O)CN(CCCCCCCCC)CCN(CCCCCCCCC)CCCCCCCCC)C1 (stereo not shown) [Compound 124] = 0
• CCCCCCCCCN(CCCCCCCCC)CCCC1CCN(C(=O)CCN(CCCCCCCCC)CCN(CCCCCCCCC)CCCCCCCCC)CC1 [Compound 85] = 1
• CCCCCCCCCCCCCCN(CCCCCCCC(=O)OCCCCC)CC(=O)N1CCN(C(=O)CN(CCCCCCCCC)CCN(CCCCCCCCC)CCCCCCCCC)CC1 [Compound 90] = 0
• CCCCCC/C=C\COC(=O)CCCN(CCCCCCCCCCCCCC)CC(=O)N1CCN(C(=O)CN(CCCCCCCCC)CCN(CCCCCCCCC)CCCCCCCCC)CC1 [Compound 118] = 1
